- Tested on: SW-620 colon
- PROTOCOL TEXT: NCI-60 one-dose screen, 48 h (100 = growth as untreated, 0 = no growth, -100 = all killed)
- SETUP CONDITIONS: 10 µM
This is part of a sample that, as a whole, favours compounds with a hit. Of some 83,000 tested, about 20% had one in any assay.
READOUT TYPE: growth (%)

INSERT INTO results (compound, target_entity, readout_type, unit_of_measurement, measurement) VALUES
  ('Cc1ccc(/C=C2\SC(=S)N(c3ccc(F)cc3)C2=O)o1', 'SW-620 colon', 'growth', '%', 93.3),
  ('C/C(=N\NC(=O)c1ccccc1N)c1ccccc1O', 'SW-620 colon', 'growth', '%', 31.6),
  ('COc1ccc(C(O)c2ccccc2)cc1 (centres undefined)', 'SW-620 colon', 'growth', '%', 90.3),
  ('CNC(=S)NC(C)(C)C', 'SW-620 colon', 'growth', '%', 103),
  ('O=C(O)CCCCNC(=O)c1ccccc1', 'SW-620 colon', 'growth', '%', 107),
  ('CCCC1(c2ccccc2)NC(=O)NC1=O (centres undefined)', 'SW-620 colon', 'growth', '%', 111),
  ('CC1(C(N)=O)CCC(C(=O)O)C1(C)C (centres undefined)', 'SW-620 colon', 'growth', '%', 111),
  ('O=C(O)c1cc([N+](=O)[O-])ccc1Cl', 'SW-620 colon', 'growth', '%', 98.5),
  ('CC1CCC(C(=O)O)N1 (centres undefined)', 'SW-620 colon', 'growth', '%', 113),
  ('Nc1ccccc1C(=O)Nc1ccc(Cl)cc1Cl', 'SW-620 colon', 'growth', '%', 85.9),
  ('CCCCC(O)c1ccccc1 (centres undefined)', 'SW-620 colon', 'growth', '%', 108),
  ('CC(=O)c1cc2c(cc1F)C(C)(C)CCC2(C)C', 'SW-620 colon', 'growth', '%', 102),
  ('N#CSc1cc(S(N)(=O)=O)ccc1N', 'SW-620 colon', 'growth', '%', 107),
  ('Cc1nc2ccccc2c(C(=O)O)c1O', 'SW-620 colon', 'growth', '%', 110);

---

- Tested on: T-47D breast
- PROTOCOL TEXT: NCI-60 one-dose screen, 48 h (100 = growth as untreated, 0 = no growth, -100 = all killed)
- SETUP CONDITIONS: 10 µM
The panel holds about 83,000 compounds, 20% with a hit somewhere; the sample as a whole holds those more often.
READOUT TYPE: growth (%)

INSERT INTO assay_data (molecule, readout_type, measurement) VALUES
  ('CCOC(=O)Nc1cc2c(c(N)n1)N=C(c1ccccc1)CO2', 'growth', 72.3),
  ('Cc1ccccc1C1N=C2Oc3ccccc3C=C2C(=O)N1 (stereo not drawn)', 'growth', 48.1),
  ('CC(=O)OC(OC(C)=O)C1CCCO1 (stereo not drawn)', 'growth', 101),
  ('COC(=O)c1ccccc1Br', 'growth', 109),
  ('O=C1Cc2cc(O)ccc2O1', 'growth', 101),
  ('CC[N+](C)(CC)CCO', 'growth', 93.4),
  ('c1ncc2[nH]cnc2n1', 'growth', 94.5),
  ('CNS(=O)(=O)c1ccc(Cl)c(Cl)c1', 'growth', 99.2),
  ('CCCNc1ccc(C2=NCCCN2)cc1', 'growth', 97.3),
  ('CC(=O)Oc1ccc(Br)cc1C(=O)O', 'growth', 97.6),
  ('CCCNC(=O)c1ccc(S(N)(=O)=O)cc1', 'growth', 96),
  ('O=[N+]([O-])c1ccc(O)c(S(=O)(=O)O)c1', 'growth', 96.5),
  ('CC(C)CCCC(=O)O', 'growth', 104),
  ('C[C@]12CC[C@@H]3c4ccc(OCC(=O)O)cc4CC[C@H]3[C@@H]1CCC2=O', 'growth', 114),
  ('Cc1cc(N2CCC(N3CCCC3)CC2)nc(/N=C(\N)Nc2ccc(Cl)c(Cl)c2)n1', 'growth', 106),
  ('CCCCCCCCCCCCCCCCC1CC(=O)OC1=O (stereo not drawn)', 'growth', 97.4),
  ('Cc1nc2ccccc2c2nnc(SCC(=O)N(Cc3ccccc3)c3ccccc3)n12', 'growth', 76.4),
  ('O=C(c1ccc(O)cc1)c1ccc(O)cc1', 'growth', 113),
  ('Cc1ccc(S(=O)(=O)O)c(C)c1', 'growth', 92.5),
  ('NC(=O)N/N=C\c1ccco1', 'growth', 107),
  ('COc1ccccc1N1CCN(C(=S)Nc2ccccc2)CC1', 'growth', 90.9),
  ('COC(=O)CCCCC1=CCC2C(=O)C=C(O)C2C1 (stereo not drawn)', 'growth', 98.9),
  ('O=[N+]([O-])c1ccccc1S(=O)c1ccccc1[N+](=O)[O-]', 'growth', 73.1),
  ('O=C1Cc2ccccc2C(=O)O1', 'growth', 108),
  ('COc1cc(C(N)=O)cc(OC)c1OC', 'growth', 110),
  ('COc1cc2c(cc1O)CC[C@@H]1C2CC[C@@]2(C)C1CC[C@@H]2O (stereo partly drawn)', 'growth', 31.1),
  ('Oc1ccc2c(c1)OCC1(O)Cc3cc(O)c(O)cc3C21 (stereo not drawn)', 'growth', 168),
  ('O=c1cc(-c2ccccc2)oc2c1ccc1ccccc12', 'growth', 72);

Reference source for all entries: PubChem BioAssay (NCI)
